The compounds listed here are annotated with their microsomal CLint at 0.5 µM.
experiment: Intrinsic clearance in mouse liver microsomes at 0.5 uM incubated upto 30 mins in presence of NADPH measured per mg protein by LC/MS/MS analysis; assay type: ADME, Microsome; conditions: read-out: CLH
Dear colleague, please return just the value in µL/min/mg, with no unit written.

Consider the worked cases shown below.
Cc1c(C)c2ccc(OCC3CCCN(Cc4ccccc4)C3)cc2oc1=O (racemic) : 265
Cc1c(C)c2ccc(OCC3CCCN(CCCO)C3)cc2oc1=O (racemic) : 15.1
Cc1c(C)c2ccc(OCC3CCN(CCCO)CC3)cc2oc1=O : 29.5
CN(Cc1ccc(COc2ccc3c(CO)cc(=O)oc3c2)cc1)Cc1cccc(F)c1 : 37.7
CN(CCCC(F)F)Cc1ccc(COc2ccc3c(CO)cc(=O)oc3c2)cc1 : 55.6

## Input Would you kindly share the measured microsomal CLint at 0.5 µM for `CN(Cc1ccccc1)Cc1ccc(COc2ccc3c(C(F)F)cc(=O)oc3c2)cc1` ?
## Output 142

## Input Would you kindly share the measured microsomal CLint at 0.5 µM for `Cc1c(C)c2ccc(OCC3CCN(Cc4cccc(C(F)(F)F)c4)CC3)cc2oc1=O` ?
## Output 146

## Input Would you kindly share the measured microsomal CLint at 0.5 µM for Cc1c(C)c2ccc(OCC3CCCN(CCCC(F)F)C3)cc2oc1=O (racemic) ?
## Output 78.1

## Input Would you kindly share the measured microsomal CLint at 0.5 µM for `Cc1c(C)c2ccc(OCC3CCN(Cc4ccccc4)CC3)cc2oc1=O` ?
## Output 206

## Input Would you kindly share the measured microsomal CLint at 0.5 µM for `Cc1c(C)c2ccc(OCC3CCN(CCCC(F)F)CC3)cc2oc1=O` ?
## Output 116

## Input Would you kindly share the measured microsomal CLint at 0.5 µM for `CCN(CCCOc1ccc2c(C)c(C)c(=O)oc2c1)Cc1cccc(F)c1` ?
## Output 260

## Input Would you kindly share the measured microsomal CLint at 0.5 µM for `CN(Cc1ccccc1)Cc1ccc(COc2ccc3c(CO)cc(=O)oc3c2)cc1` ?
## Output 43.9

###

Target protein (sequence): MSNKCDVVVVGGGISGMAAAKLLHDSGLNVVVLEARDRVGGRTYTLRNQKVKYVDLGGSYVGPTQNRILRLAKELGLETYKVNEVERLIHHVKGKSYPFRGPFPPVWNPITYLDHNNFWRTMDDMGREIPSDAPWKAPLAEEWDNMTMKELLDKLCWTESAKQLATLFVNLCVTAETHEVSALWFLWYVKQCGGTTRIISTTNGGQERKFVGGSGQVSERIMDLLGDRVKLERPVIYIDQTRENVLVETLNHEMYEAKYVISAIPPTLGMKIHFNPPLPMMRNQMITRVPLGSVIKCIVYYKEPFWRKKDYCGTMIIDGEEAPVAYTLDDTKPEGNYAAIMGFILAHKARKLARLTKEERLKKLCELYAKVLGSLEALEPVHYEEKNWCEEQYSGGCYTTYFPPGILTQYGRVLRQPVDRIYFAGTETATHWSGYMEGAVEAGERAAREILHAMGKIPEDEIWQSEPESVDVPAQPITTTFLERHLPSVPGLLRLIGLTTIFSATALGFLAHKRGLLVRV
Using IC50 as the sorting value, the categories are lower range (below 100 nM), middle range (100 nM to below 300 nM), upper range (300 nM or more)

Cc1c(C)c2ccc(OCC3CCN(Cc4cccc(F)c4)CC3)cc2oc1=O : middle range
Cc1c(C)c2ccc(OCCCN(Cc3cccc(F)c3)C(C)C)cc2oc1=O : upper range
Cc1c(C)c2ccc(OCc3cccc(CN(C)CCCC(F)F)c3)cc2oc1=O : upper range
CN(CCCO)Cc1ccc(COc2ccc3c(CO)cc(=O)oc3c2)cc1 : upper range
Cc1c(C)c2ccc(OCC3CCCN(Cc4cccc(F)c4)C3)cc2oc1=O (racemic) : lower range
CN(Cc1ccccc1)Cc1ccc(COc2ccc3c(C(F)F)cc(=O)oc3c2)cc1 : middle range

## Input Each compound maps to one class by IC50. Which class for `Cc1c(C)c2ccc(OCC3CCN(Cc4cccc(C(F)(F)F)c4)CC3)cc2oc1=O` ?
## Output middle range

## Input Each compound maps to one class by IC50. Which class for `CN(Cc1ccc(COc2ccc3c(CO)cc(=O)oc3c2)cc1)Cc1cccc(F)c1` ?
## Output lower range

###

assay: Chromatographic hydrophobicity index of the compound in ammonium acetate buffer at pH 7.4 by RP-HPLC analysis; format: physicochemical
Reported Metric: CHI

Consider the worked cases shown below.
CN(Cc1ccc(COc2ccc3c(CO)cc(=O)oc3c2)cc1)Cc1cccc(F)c1 : > 100
Cc1c(C)c2ccc(OCC3CCN(Cc4cccc(F)c4)CC3)cc2oc1=O : > 100
CN(CCCC(F)F)Cc1ccc(COc2ccc3c(CO)cc(=O)oc3c2)cc1 : 76.4
Cc1c(C)c2ccc(OCc3cccc(CN(C)CCCC(F)F)c3)cc2oc1=O : > 100
Cc1c(C)c2ccc(OCC3CCN(CCCC(F)F)CC3)cc2oc1=O : 73.4
CN(Cc1ccccc1)Cc1ccc(COc2ccc3c(C(F)F)cc(=O)oc3c2)cc1 : > 100
Cc1c(C)c2ccc(OCC3CCCN(CCCO)C3)cc2oc1=O (racemic) : 48.8
Cc1c(C)c2ccc(OCC3CCN(Cc4cccc(C(F)(F)F)c4)CC3)cc2oc1=O : > 100

## Input Would you kindly share the measured CHI for Cc1c(C)c2ccc(OCC3CCCN(CCCC(F)F)C3)cc2oc1=O (racemic) ?
## Output 83.4

## Input Would you kindly share the measured CHI for Cc1c(C)c2ccc(OCC3CCCN(Cc4ccccc4)C3)cc2oc1=O (racemic) ?
## Output > 100

###

molecular target: Amine oxidase [flavin-containing] B (Homo sapiens, UniProt P27338); assay: Inhibition of human recombinant MAO-B expressed in supersomes assessed as inhibition of 4-hydroxyquinoline formation using kynuramine as substrate by spectrophotometric method
Reported Metric: inhibition (INH)

CN(CCCC(F)F)Cc1ccc(COc2ccc3c(CO)cc(=O)oc3c2)cc1 : Active
CN(Cc1ccc(COc2ccc3c(CO)cc(=O)oc3c2)cc1)Cc1cccc(F)c1 : Active
Cc1c(C)c2ccc(OCCCN(Cc3cccc(F)c3)C(C)C)cc2oc1=O : Active
Cc1c(C)c2ccc(OCC3CCN(Cc4cccc(F)c4)CC3)cc2oc1=O : Active

###

target: UniProtKB P81908
Sequence (P81908 whole entry): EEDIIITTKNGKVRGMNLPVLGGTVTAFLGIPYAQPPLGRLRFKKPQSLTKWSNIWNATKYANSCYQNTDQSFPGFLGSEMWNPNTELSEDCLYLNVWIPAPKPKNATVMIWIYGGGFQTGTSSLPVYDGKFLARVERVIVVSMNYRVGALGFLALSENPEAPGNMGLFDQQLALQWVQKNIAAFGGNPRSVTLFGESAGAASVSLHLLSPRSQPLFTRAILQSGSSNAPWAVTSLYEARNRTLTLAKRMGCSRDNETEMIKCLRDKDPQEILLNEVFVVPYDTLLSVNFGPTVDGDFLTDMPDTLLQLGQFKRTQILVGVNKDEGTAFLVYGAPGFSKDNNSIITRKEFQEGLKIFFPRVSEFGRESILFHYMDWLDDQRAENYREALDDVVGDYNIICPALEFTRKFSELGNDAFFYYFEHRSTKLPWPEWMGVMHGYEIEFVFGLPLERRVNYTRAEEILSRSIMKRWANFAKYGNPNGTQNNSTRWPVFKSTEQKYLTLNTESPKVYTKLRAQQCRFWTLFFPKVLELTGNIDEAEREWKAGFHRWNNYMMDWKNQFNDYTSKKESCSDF
Sorting guide: entries reporting IC50 beneath 2000 nM go in the Condition met pile, the rest go in the Condition not met pile.

Examples from the recorded data:
Cc1c(C)c2ccc(OCC3CCN(Cc4cccc(F)c4)CC3)cc2oc1=O : Condition not met
CN(Cc1ccccc1)Cc1ccc(COc2ccc3c(C(F)F)cc(=O)oc3c2)cc1 : Condition met

## Input Lab note: IC50 threshold 2000 nM. Does this compound come in strictly under it? `Cc1c(C)c2ccc(OCc3ccc(CN(C)CCCC(F)F)cc3)cc2oc1=O`
## Output Condition not met

## Input Lab note: IC50 threshold 2000 nM. Does this compound come in strictly under it? `CN(Cc1ccc(COc2ccc3c(CO)cc(=O)oc3c2)cc1)Cc1cccc(F)c1`
## Output Condition met

## Input Lab note: IC50 threshold 2000 nM. Does this compound come in strictly under it? `CCN(CCCOc1ccc2c(C)c(C)c(=O)oc2c1)Cc1cccc(F)c1`
## Output Condition not met

## Input Lab note: IC50 threshold 2000 nM. Does this compound come in strictly under it? `Cc1c(C)c2ccc(OCc3cccc(CN(C)CCCC(F)F)c3)cc2oc1=O`
## Output Condition met

###

biological target: Cytochrome P450 3A4 (Homo sapiens, UniProt P08684); test: Inhibition of human recombinant CYP3A4 expressed in baculosomes by fluorescent homogenous assay; assay type: ADME
Sequence (P08684 whole entry): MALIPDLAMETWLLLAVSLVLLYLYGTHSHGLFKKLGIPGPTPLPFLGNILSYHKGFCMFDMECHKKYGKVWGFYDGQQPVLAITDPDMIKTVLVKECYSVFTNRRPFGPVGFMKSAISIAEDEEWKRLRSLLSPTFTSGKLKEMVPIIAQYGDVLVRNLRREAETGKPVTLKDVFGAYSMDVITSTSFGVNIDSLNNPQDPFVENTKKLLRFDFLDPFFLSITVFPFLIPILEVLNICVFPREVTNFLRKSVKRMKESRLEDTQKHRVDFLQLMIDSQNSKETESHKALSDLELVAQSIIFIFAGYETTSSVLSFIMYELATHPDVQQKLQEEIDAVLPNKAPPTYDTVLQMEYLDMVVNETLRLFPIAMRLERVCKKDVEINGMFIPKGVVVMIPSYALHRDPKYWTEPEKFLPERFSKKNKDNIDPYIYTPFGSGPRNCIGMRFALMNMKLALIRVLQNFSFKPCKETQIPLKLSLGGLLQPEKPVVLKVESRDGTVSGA
The molecules listed here are annotated with their IC50.
Dear colleague, please return just the value in µM, with no unit written.

Consider the worked cases shown below.
CN(Cc1ccc(COc2ccc3c(CO)cc(=O)oc3c2)cc1)Cc1cccc(F)c1 : 3.5
Cc1c(C)c2ccc(OCc3cccc(CN(C)CCCC(F)F)c3)cc2oc1=O : 0.6
CN(CCCC(F)F)Cc1ccc(COc2ccc3c(CO)cc(=O)oc3c2)cc1 : 10

Switching to the query record.
## Input Would you kindly share the measured IC50 for `Cc1c(C)c2ccc(OCC3CCN(CCCC(F)F)CC3)cc2oc1=O` ?
## Output 0.8

###

assay: Microsomal stability in mouse liver microsomes assessed as half life at 0.5 uM incubated upto 30 mins in presence of NADPH by LC/MS/MS analysis; assay type: ADME, Microsome
Reported Metric: half-life at 0.5 µM (min)
Dear colleague, please return just the value in min, with no unit written.

Consider the worked cases shown below.
Cc1c(C)c2ccc(OCC3CCCN(Cc4ccccc4)C3)cc2oc1=O (racemic) : 5.3
CCN(CCCOc1ccc2c(C)c(C)c(=O)oc2c1)Cc1cccc(F)c1 : 5.3

Switching to the query record.
## Input Would you kindly share the measured half-life at 0.5 µM for `Cc1c(C)c2ccc(OCC3CCN(Cc4ccccc4)CC3)cc2oc1=O` ?
## Output 6.7
